- TEST DESCRIPTION: Acute toxicity (LD50) and therapeutic index
- Assay type: in vivo
- RUN PARAMETERS: mouse, in vivo; mice, IP
ASSAY ENDPOINT: LD50

INSERT INTO measurements (compound, assay_endpoint, assay_value) VALUES
  ('CC(C)CC(N)=O [Isovaleramide, isovaleramide]', 'LD50', '> 4000 mg/kg');

---

- TEST DESCRIPTION: Acute toxicity (LD50) and therapeutic index
- Type: in vivo
- RUN PARAMETERS: mouse, in vivo; mice, IP
- Description: Convulsant activity was tested for N,N-diethylisovaleramide and isovaleramide itself. The potential for CNS-stimulating and convulsant properties was assessed by administering appropriate doses of the test substances IP to rodents (male mice and rats). […] At the highest dose of isovaleramide tested (4000 mg/kg IP), some deaths resulted among the test animals (male mice) after sleeping for several days, apparently from respiratory depression. […]
ASSAY ENDPOINT: selectivity ratio

INSERT INTO results (molecule, assay_endpoint, assay_value) VALUES
  ('CC(C)CC(N)=O [Isovaleramide, isovaleramide]', 'selectivity ratio', '~40');

Values from patent US5506268A
